The measured values listed here are drawn from paper PMC10762035.

target: hTA1 R83H (Homo sapiens, UniProt Q96RJ0, R83H); construct: expressed in transfected cells; host or cells: HEK293T; experiment: GloSensor cAMP accumulation assay, R83H mutant; format: cell-based; conditions: R83H mutant minus WT average;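 also: cells transiently co-expressing hTA1 and a cAMP GloSensor, luminescence read 30 min after agonist addition at room temperature, concentration–response fitted by non-linear regression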
Sequence (Q96RJ0 whole entry R83H): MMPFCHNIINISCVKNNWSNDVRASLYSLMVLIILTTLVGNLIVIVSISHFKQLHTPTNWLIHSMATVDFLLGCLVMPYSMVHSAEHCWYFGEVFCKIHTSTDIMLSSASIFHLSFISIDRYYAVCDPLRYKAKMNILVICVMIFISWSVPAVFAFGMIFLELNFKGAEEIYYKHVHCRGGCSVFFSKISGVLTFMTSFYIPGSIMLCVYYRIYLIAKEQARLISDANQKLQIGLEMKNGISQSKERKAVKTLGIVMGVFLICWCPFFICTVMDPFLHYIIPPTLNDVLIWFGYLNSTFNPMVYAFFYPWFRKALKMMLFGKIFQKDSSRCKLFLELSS
Lab note: compare ΔEmax values (each mutant value - WT average) with -40, writing Satisfied if less and Not satisfied if equal or more.

Hello, I'm reviewing records and need to know if ΔEmax values (each mutant value - WT average) of CCc1[nH]nc(C(=O)Nc2ccc([C@H]3CNCCO3)cc2)c1C is below -40. Could you check?
Not satisfied

Consider NCCc1ccc(Oc2ccc(O)cc2)c(I)c1 . Does its ΔEmax values (each mutant value - WT average) lie strictly below -40?
Satisfied

Does the reported ΔEmax values (each mutant value - WT average) of the following molecule sit strictly below -40? CCC(CC1COC(N)=N1)c1ccccc1 (stereo not drawn)
Satisfied

is_below(ΔEmax values (each mutant value - WT average), -40) for NCCc1ccc(O)cc1 ?
Not satisfied

Just wondering, is ΔEmax values (each mutant value - WT average) of NCCc1ccccc1 below -40?
Not satisfied

I'd appreciate it if you could check whether Cc1c(F)cccc1[C@H]1COC(N)=N1 has ΔEmax values (each mutant value - WT average) smaller than -40.
Satisfied
